In this section, each of the compounds is paired with its reported EC50.
# tested_target: human GLP1R (Homo sapiens, UniProt P43220)
# Sequence (P43220 24-463): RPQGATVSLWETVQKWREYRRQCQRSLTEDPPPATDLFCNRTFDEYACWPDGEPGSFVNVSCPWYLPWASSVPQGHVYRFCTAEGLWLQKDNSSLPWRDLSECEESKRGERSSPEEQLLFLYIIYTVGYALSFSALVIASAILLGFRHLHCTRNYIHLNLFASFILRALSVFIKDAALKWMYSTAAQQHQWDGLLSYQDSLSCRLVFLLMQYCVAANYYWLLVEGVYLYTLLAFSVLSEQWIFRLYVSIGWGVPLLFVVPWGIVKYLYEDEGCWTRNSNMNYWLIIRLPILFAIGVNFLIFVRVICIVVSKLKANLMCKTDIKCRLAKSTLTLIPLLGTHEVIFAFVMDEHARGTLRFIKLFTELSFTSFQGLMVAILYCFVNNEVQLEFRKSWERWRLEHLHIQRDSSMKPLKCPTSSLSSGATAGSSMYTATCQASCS
# test_summary: Human GLP1R DERET internalization assay
# protocol_conditions: HEK293-SNAP-hGLP1R-GloSensor cells; mean n=2

compound | tested_target | EC50
C[C@]1(c2ccc(Cl)cc2F)Oc2cccc(C3CCN(Cc4nc(C(F)(F)F)c(-c5nc(=O)o[nH]5)n4C[C@@H]4CCO4)CC3)c2O1 [Compound C-26] | human GLP1R (Homo sapiens, UniProt P43220) | > 30 µM
C[C@]1(c2ccc(Cl)cc2F)Oc2cccc(C3CCN(Cc4ncc(/C=C/C(=O)O)n4C[C@@H]4CCO4)CC3)c2O1 [Compound C-1] | human GLP1R (Homo sapiens, UniProt P43220) | 0.336 µM
C[C@]1(c2ccc(Cl)cc2F)Oc2cccc(C3CCN(Cc4nc(/C=C/C(=O)O)cn4C[C@@H]4CCO4)CC3)c2O1 [Compound C-2] | human GLP1R (Homo sapiens, UniProt P43220) | > 30 µM
Cc1nc(CN2CCC(c3cccc4c3O[C@@](C)(c3ccc(Cl)cc3F)O4)CC2)n(C[C@@H]2CCO2)c1-c1nc(=O)o[nH]1 [Compound C-20] | human GLP1R (Homo sapiens, UniProt P43220) | > 30 µM
Cc1nc(CN2CCC(c3cccc4c3O[C@@](C)(c3ccc(Cl)cc3F)O4)CC2)n(C[C@@H]2CCO2)c1C(=O)NCC(=O)O [Compound C-16] | human GLP1R (Homo sapiens, UniProt P43220) | > 30 µM
C[C@]1(c2ccc(Cl)cc2F)Oc2cccc(C3CCN(Cc4nc(C(F)(F)F)c(C(=O)O)n4C[C@@H]4CCO4)CC3)c2O1 [Compound C-7] | human GLP1R (Homo sapiens, UniProt P43220) | > 30 µM
Cc1c(-c2cccc(C(=O)O)c2)nc(CN2CCC(c3cccc4c3O[C@@](C)(c3ccc(Cl)cc3F)O4)CC2)n1C[C@@H]1CCO1 [Compound C-10] | human GLP1R (Homo sapiens, UniProt P43220) | > 30 µM
Cc1c(/C=C/C(=O)O)nc(CN2CCC(c3cccc4c3O[C@@](C)(c3ccc(Cl)cc3F)O4)CC2)n1C[C@@H]1CCO1 [Compound C-6] | human GLP1R (Homo sapiens, UniProt P43220) | > 30 µM
C[C@]1(c2ccc(Cl)cc2F)Oc2cccc(C3CCN(Cc4nc5ccc(C(=O)O)cc5n4C[C@@H]4CCO4)CC3)c2O1 [Reference compound, reference compound] | human GLP1R (Homo sapiens, UniProt P43220) | 0.015 µM
Cc1c(-c2nc(=O)o[nH]2)nc(CN2CCC(c3cccc4c3O[C@@](C)(c3ccc(Cl)cc3F)O4)CC2)n1C[C@@H]1CCO1 [Compound C-21] | human GLP1R (Homo sapiens, UniProt P43220) | 1.79 µM

Any idea what EC50 came out for Cc1nc(CN2CCC(c3cccc4c3O[C@@](C)(c3ccc(Cl)cc3F)O4)CC2)n(C[C@@H]2CCO2)c1CC(F)C(=O)O (some centres unmarked) [Compound C-15] on human GLP1R (Homo sapiens, UniProt P43220)? > 30 µM

Any idea what EC50 came out for Cc1nc(CN2CCC(c3cccc4c3O[C@@](C)(c3ccc(Cl)cc3F)O4)CC2)n(C[C@@H]2CCO2)c1C#CC(=O)O [Compound C-22] on human GLP1R (Homo sapiens, UniProt P43220)? 0.018 µM

Any idea what EC50 came out for C[C@]1(c2ccc(Cl)cc2F)Oc2cccc(C3CCN(Cc4nc(C(F)(F)F)c(/C=C/C(=O)O)n4C[C@@H]4CCO4)CC3)c2O1 [Compound C-8] on human GLP1R (Homo sapiens, UniProt P43220)? > 30 µM

Any idea what EC50 came out for Cc1nc(CN2CCC(c3cccc4c3O[C@@](C)(c3ccc(Cl)cc3F)O4)CC2)n(C[C@@H]2CCO2)c1/C=C(\F)C(=O)O [Compound C-19b] on human GLP1R (Homo sapiens, UniProt P43220)? > 30 µM

Every entry's value here was drawn from patent US20240182456A1.
